condition_description: mouse, microsomes
What Microsomal Stability was measured for each of the following?
Express your answer in min, writing the number without its unit.

QUERY: Determine from records and report Microsomal Stability for C(=C/c1nnc(-c2ccccn2)n1Cc1ccco1)/c1ccccc1 [Compound 38]
RESULT: 19.4

QUERY: Given `Cc1ccc(CCc2nnc(-c3ccccn3)n2Cc2cccnc2)cc1C(F)(F)F` , respond with its Microsomal Stability.
RESULT: 1.7

QUERY: Quickly give me recorded Microsomal Stability for OC(Cc1nnc(-c2ccccn2)n1Cc1ccco1)c1ccccc1 (stereo not drawn)
RESULT: 20.7

QUERY: Using known records, supply Microsomal Stability for `O=C(Cc1ccccc1)c1nnc(-c2ccccn2)n1Cc1ccco1`
RESULT: 8.1

QUERY: Please indicate Microsomal Stability recorded for `Fc1ccc(CCc2nnc(-c3ccccn3)n2Cc2cccs2)cc1`
RESULT: 3.1

QUERY: For the molecule `Cc1ccc(CCc2nnc(-c3ncccc3C)n2Cc2cccs2)cc1C(F)(F)F` , give its reported Microsomal Stability.
RESULT: 1.1

QUERY: Give a short answer stating reported Microsomal Stability for `c1ccc(-c2nnc(CCc3ccc4ccccc4c3)n2Cc2cccs2)nc1` .
RESULT: 2.4

QUERY: Fill in Microsomal Stability for record `Cc1ccc(CCc2nnc(-c3ccncn3)n2Cc2cccs2)cc1C(F)(F)F`
RESULT: 1.1

QUERY: Give me measured Microsomal Stability, please, for this molecule: `Cc1ccc(CCc2nnc(-c3ncccn3)n2Cc2cccs2)cc1C(F)(F)F`
RESULT: 0.8

----------
target_desc: kappa opioid receptor (Homo sapiens)
Sequence (P41145 whole entry): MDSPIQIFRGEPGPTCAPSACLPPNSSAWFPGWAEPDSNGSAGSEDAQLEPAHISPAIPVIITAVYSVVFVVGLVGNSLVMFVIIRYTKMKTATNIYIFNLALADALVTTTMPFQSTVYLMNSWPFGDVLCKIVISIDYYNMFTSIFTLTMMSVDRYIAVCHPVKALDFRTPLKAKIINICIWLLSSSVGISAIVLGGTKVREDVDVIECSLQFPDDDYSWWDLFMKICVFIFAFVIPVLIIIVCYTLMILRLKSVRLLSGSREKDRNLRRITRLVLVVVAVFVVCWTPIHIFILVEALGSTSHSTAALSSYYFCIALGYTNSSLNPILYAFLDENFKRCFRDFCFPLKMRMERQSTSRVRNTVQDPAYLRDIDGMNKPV
experimental_protocol: GTPγS binding assay (G-protein activation)
Type: biochemical
condition_description: 3 parameter nonlinear regression; nc = did not converge
Assign EC50 to each entry below.
Value expressed in nM; do not type the unit.

QUERY: For the molecule Cc1ccc(/C=C/c2nnc(-c3ccccn3)n2Cc2ccco2)cc1C(F)(F)F [42 (UNC9008)] , give its reported EC50.
RESULT: 1600

QUERY: Identify EC50 associated with the molecule `Cn1ccnc1-c1nnc(CCc2ccc(Cl)cc2)n1Cc1nccs1`
RESULT: 2250

QUERY: Name the recorded EC50 of the molecule listed here: `Cc1ccc(CCc2nnc(-c3cccn3C)n2Cc2cccs2)cc1C(F)(F)F`
RESULT: 36

QUERY: # return recorded EC50 for input `Cc1ccc(CCN(CCc2ccco2)C(=O)c2ccccn2)cc1C(F)(F)F`
RESULT: 1540

QUERY: Supply EC50 value. Item: Cc1ccc(/C=C/c2nnc(-c3ccccn3)n2Cc2ccco2)cc1C(F)(F)F (single isomer, unassigned) [Compound 40]
RESULT: 1600

QUERY: # return recorded EC50 for input `Cc1ccc(CCc2nnc(-c3nccn3C)n2Cc2cccs2)cc1C(F)(F)F`
RESULT: 95

QUERY: Using the record for `Cc1ccc(/C=C/c2nnc(-c3ccccn3)n2Cc2cccs2)cc1C(F)(F)F` , state its measured EC50.
RESULT: 667

QUERY: Entry `Cc1ccc(CCc2nnc(-c3ccccn3)n2Cc2nccs2)cc1C(F)(F)F` needs its EC50 filled in; supply it.
RESULT: 51

QUERY: Report EC50 for `Cc1ccc(CCCc2nnc(-c3ccccn3)n2Cc2ccco2)cc1C(F)(F)F`
RESULT: 812

QUERY: Please report EC50 for the following molecule: Cc1ccc(CCc2nnc(-c3ccccn3)n2CCc2ccccc2)cc1C(F)(F)F [Compound 13a]
RESULT: 1940

QUERY: Report measured EC50; entry is Cc1ccc(/C=C/c2nnc(-c3nccn3C)n2Cc2nccs2)cc1C(F)(F)F [53 (UNC9081)]
RESULT: 309

QUERY: Identify EC50 associated with the molecule Cc1ccc(CCc2nnc(-c3ccccn3)n2CC2CCCO2)cc1C(F)(F)F (stereo not drawn) [Compound 17a]
RESULT: 104

QUERY: Kindly indicate its recorded EC50. Item: Cc1ccc(/C=C/c2nnc(-c3ccccn3)n2Cc2nccs2)cc1C(F)(F)F [50 (UNC9078)]
RESULT: 767

QUERY: Tell us which EC50 value is on record for `Cc1ccc(CCCN(CCCc2ccco2)C(=O)c2ccccn2)cc1C(F)(F)F`
RESULT: 3060

QUERY: Return reported EC50. Input molecule: FC(Cc1ccccc1)c1nnc(-c2ccccn2)n1Cc1ccco1 (stereo not drawn)
RESULT: 3820

----------
condition_description: mouse, microsomes
Assignment: determine reported Microsomal Stability for the given compounds.
The response must be a number in min with no trailing unit.

QUERY: Name the recorded Microsomal Stability of the item `Cn1ccnc1-c1nnc(CCc2ccc(Cl)cc2)n1Cc1nccs1` in your answer.
RESULT: 2.4

QUERY: Quickly give me recorded Microsomal Stability for Cc1ccc(/C=C/c2nnc(-c3nccn3C)n2Cc2cccs2)cc1C(F)(F)F [Compound 50]
RESULT: 12.2

QUERY: Name the recorded Microsomal Stability of the item `Cc1ccc(CCc2nnc(-c3ccccn3)n2CC2CC2)cc1C(F)(F)F` in your answer.
RESULT: 0.9

QUERY: Given the compound `Clc1ccc(CCc2nnc(-c3ccccn3)n2Cc2ccco2)cc1` , write its reported Microsomal Stability.
RESULT: 3.3

QUERY: State its Microsomal Stability for this compound: Cc1ccc(/C=C/c2nnc(-c3nccn3C)n2Cc2cccs2)cc1C(F)(F)F [52 (UNC9166)]
RESULT: 12.2

----------
condition_description: mouse, microsomes
measurement_type: Microsomal Stability

QUERY: Report measured Microsomal Stability; entry is `Cc1ccc(CCc2nnc(-c3cccn3C)n2Cc2cccs2)cc1C(F)(F)F`
RESULT: 3.1 min

QUERY: Note Microsomal Stability for the compound shown: `Brc1ccccc1CCc1nnc(-c2ccccn2)n1Cc1cccs1`
RESULT: 1.7 min

QUERY: Provide only the value of recorded Microsomal Stability for `Cc1ccc(CCc2nnc(-c3ccccn3)n2Cc2ccncc2)cc1C(F)(F)F`
RESULT: 0.9 min

QUERY: Read off the recorded Microsomal Stability for `Cc1ccc(CCc2nnc(-c3ccccn3)n2Cc2ccccn2)cc1C(F)(F)F`
RESULT: 1.0 min

QUERY: Please report Microsomal Stability for the following compound: `Cc1ccc(CCCc2nnc(-c3ccccn3)n2Cc2ccco2)cc1C(F)(F)F`
RESULT: 1.6

QUERY: Specify reported Microsomal Stability for the compound shown: `Cc1ccc(CCc2nnc(-c3ccc4ccccc4n3)n2Cc2cccs2)cc1C(F)(F)F`
RESULT: 2.2 min

QUERY: Provide Microsomal Stability value for the following compound: `Cc1ccc(CCc2nnc(-c3ccc4ccccc4c3)n2Cc2cccs2)cc1C(F)(F)F`
RESULT: 1.3 min

QUERY: Recall and state the measured Microsomal Stability for `Cc1ccc(CCc2nnc(-c3cccnc3)n2Cc2cccs2)cc1C(F)(F)F` .
RESULT: 1.0 min

QUERY: Specify Microsomal Stability for `Cc1ccc(CN(Cc2ccco2)C(=O)c2ccccn2)cc1C(F)(F)F` and stop.
RESULT: 1.8 min

QUERY: Identify Microsomal Stability associated with the compound Cc1ccc(/C=C/c2nnc(-c3nccn3C)n2Cc2nccs2)cc1C(F)(F)F [53 (UNC9081)]
RESULT: 14.5 min

QUERY: // fetch Microsomal Stability given entry OC(Cc1ccccc1)c1nnc(-c2ccccn2)n1Cc1ccco1 (stereo not drawn)
RESULT: 17.4 min

QUERY: // fetch Microsomal Stability given entry `Cc1ccc(/C=C/c2nnc(-c3ccccn3)n2Cc2cccs2)cc1C(F)(F)F`
RESULT: 22.0 min

QUERY: Give the reported Microsomal Stability for this compound. `Cc1ccc(CCc2nnc(-c3nccn3C)n2Cc2ccco2)cc1C(F)(F)F`
RESULT: 1.6 min

QUERY: Give reported Microsomal Stability value for `Cc1ccc(CCc2nnc(-c3cccc4ccccc34)n2Cc2cccs2)cc1C(F)(F)F`
RESULT: 0.9 min

QUERY: Look up and state reported Microsomal Stability for `COc1ccc(CCc2nnc(-c3ccccn3)n2Cc2cccs2)cc1`
RESULT: 5.6 min

QUERY: Input `Cc1ccc(CCc2nnc(-c3ccccn3)n2Cc2nccs2)cc1C(F)(F)F` , output reported Microsomal Stability.
RESULT: 2.1 min

QUERY: Provide measured Microsomal Stability value, entry: Cc1ccc(/C=C/c2nnc(-c3ccccn3)n2Cc2nccs2)cc1C(F)(F)F [Compound 48]
RESULT: 19.1 min

QUERY: Identify measured Microsomal Stability associated with Cc1ccc(/C=C/c2nnc(-c3ccccn3)n2Cc2nccs2)cc1C(F)(F)F [50 (UNC9078)]
RESULT: 10.1 min

----------
For each of the compounds below, state its Microsomal Stability.
condition_description: mouse, microsomes
Express the result in min but write the number alone.

QUERY: Output Microsomal Stability of `Clc1ccc(CCc2nnc(-c3ccccn3)n2Cc2cccs2)cc1`
RESULT: 3.3

QUERY: Please indicate Microsomal Stability recorded for FC(Cc1ccccc1)c1nnc(-c2ccccn2)n1Cc1ccco1 (stereo not drawn)
RESULT: 9.1

QUERY: Write down Microsomal Stability measured for item c1ccc(-c2nnc(C3CCc4ccccc4C3)n2Cc2cccs2)nc1 (stereo not drawn)
RESULT: 13.1

QUERY: Identify the reported Microsomal Stability for the following entry. `Cc1ccc(CCc2nnc(-c3ccccc3)n2Cc2cccs2)cc1C(F)(F)F`
RESULT: 1.8

QUERY: Consider the compound C(=C/c1nnc(-c2ccccn2)n1Cc1ccco1)/c1ccccc1 [Compound 39] and give its recorded Microsomal Stability.
RESULT: 12.6

QUERY: Indicate the recorded Microsomal Stability value for this compound: `Cc1ccc(CCN(CCc2ccco2)C(=O)c2ccccn2)cc1C(F)(F)F`
RESULT: 0.9

QUERY: Please indicate Microsomal Stability recorded for Cc1ccc(/C=C/c2nnc(-c3ccccn3)n2Cc2ccco2)cc1C(F)(F)F (single isomer, unassigned)
RESULT: 18

QUERY: Please list Microsomal Stability recorded for the compound FC(Cc1nnc(-c2ccccn2)n1Cc1cccs1)c1ccccc1 (stereo not drawn)
RESULT: 69.7

QUERY: Fill in Microsomal Stability for record Cc1ccc(/C=C/c2nnc(-c3nccn3C)n2Cc2nccs2)cc1C(F)(F)F [Compound 51]
RESULT: 14.5

QUERY: Specify measured Microsomal Stability for `c1ccc(-c2nnc(CCc3cccc4ccccc34)n2Cc2cccs2)nc1` .
RESULT: 1

QUERY: Provide Microsomal Stability value for the following compound: `Cc1ccc(CCc2nnc(-c3ccccn3)n2Cc2ccsc2)cc1C(F)(F)F`
RESULT: 1.0

QUERY: Tell us which Microsomal Stability value is on record for `Cc1ccc(/C=C/c2nnc(-c3nccn3C)n2Cc2ccco2)cc1C(F)(F)F`
RESULT: 14.1

QUERY: Return reported Microsomal Stability. Input compound: `FC(F)(F)c1ccc(CCc2nnc(-c3ccccn3)n2Cc2cccs2)cc1Cl`
RESULT: 1.3

QUERY: Please report Microsomal Stability for the following compound: `Brc1ccc(CCc2nnc(-c3ccccn3)n2Cc2cccs2)cc1`
RESULT: 4.6

QUERY: Tell me Microsomal Stability reported for `Brc1cccc(CCc2nnc(-c3ccccn3)n2Cc2cccs2)c1`
RESULT: 3.1

QUERY: Give the reported Microsomal Stability for this compound. `Cc1ccc(CCCN(CCCc2ccco2)C(=O)c2ccccn2)cc1C(F)(F)F`
RESULT: 1.0

QUERY: Given `FC(F)(F)c1ccccc1CCc1nnc(-c2ccccn2)n1Cc1cccs1` , respond with its Microsomal Stability.
RESULT: 3.0

QUERY: Give recorded Microsomal Stability. `Cc1ccc(CCc2nnc(-c3ccccn3)n2Cc2ccccc2)cc1C(F)(F)F`
RESULT: 0.9

Data origin: patent US20260242362A1
